experiment: Cytotoxicity against Homo sapiens (human) breast cancer cells after 48 hr by SRB assay; type: functional; details: Cancer cell lines
Assign labels as follows, please: MET for TGI below 60 µM; NOT MET for TGI equal to or exceeding 60 µM.

O=S(=O)(NC(=S)Nc1ccccc1)c1ccc(N2N=C3c4ccccc4CC3C2c2cccs2)cc1 (stereo not drawn)	MET

Field: next compound
# check: TGI < 60 µM for O=C1CS/C(=N\S(=O)(=O)c2ccc(N3N=C4c5ccccc5CC4C3c3cccs3)cc2)N1C(=O)c1ccccc1 (stereo not drawn)
NOT MET

====

test system: CAKI-1; experiment: Cytotoxicity against Homo sapiens (human) Caki1 cells after 48 hr by SRB assay; assay type: functional; settings: CAKI-1, 48 h
MEASURED PROPERTY: GI50
Please state the value followed by its unit.

O=C(Nc1ccccc1)NS(=O)(=O)c1ccc(N2N=C3c4ccccc4CC3C2c2cccnc2)cc1 (stereo not given)	26.4 µM

Query compound follows.
Hello, please tell me recorded GI50 for this one: `O=C(Nc1ccccc1)NS(=O)(=O)c1ccc(-n2nc3c(c2-c2cccs2)Cc2ccccc2-3)cc1`
11.1 µM

Cited source for all entries: ChEMBL document CHEMBL3046832
